Overview of reported GI50 across a group of compounds:
tested on: OVCAR-5 ovarian; test: NCI tumour cell line growth inhibition, 48 h

Below are worked cases with known answers.
COMPOUND	PARAMETER MEASURED	OBSERVED RESULT
CCCCC1(CN2CCOCC2)S/C(=N/c2nc(CC(=O)OCC)cs2)NC1=O (stereo not given)	GI50	35.4 µM
C=C1C(=O)O[C@H]2[C@H]1CC/C(COC(=O)c1ccc(Cl)nc1)=C\CC[C@@]1(C)O[C@@H]21	GI50	2.95 µM
COc1cc2c3c(n(CCCN(C)C)c(=O)c2cc1OC)-c1ccccc1C3=O	GI50	> 91.6 µM
Nc1nc(SN=Nc2ccc(S(N)(=O)=O)cc2)c2[nH]cnc2n1	GI50	0.629 µM
Cc1cn2c(/C=C3\C(=O)N(C)c4ccc(O)cc43)c(C)nc2s1	GI50	27.8 µM

Reading of GI50 for "O=C(Nc1ccc(CO)cc1)c1coc2ccccc2c1=O" with OVCAR-5 ovarian: > 100 µM

Reading of GI50 for "O=C(Nc1ccc(Br)cc1)c1ccc(Cl)c(Cl)c1" with OVCAR-5 ovarian: 3.9 µM

Reading of GI50 for "Cc1cc2c(cc1Cl)SC(=Nc1ccc(Cl)cc1)N(S(=O)(=O)c1ccccc1)S2(=O)=O" with OVCAR-5 ovarian: 4.43 µM

Reading of GI50 for "Oc1cn(-c2ccc(Cl)cc2)nc1-c1n[nH]c(=S)n1C1CCCCC1" with OVCAR-5 ovarian: 3.05 µM

Reading of GI50 for "CCn1c(CO)nn(-c2cc(O[C@@H](C)C(F)(F)F)c(C(=O)Nc3c(F)cccc3Cl)cc2F)c1=O" with OVCAR-5 ovarian: > 100 µM
